assay: Immobilized artificial membrane (IAM) HPLC capacity factor; format: physicochemical; details: mobile phase 85% 0.05 M ammonium phosphate pH 7.4 / 15% acetonitrile, 37° C., 1.0 ml/min; from average of 3 runs
Please provide measured k′IAM (capacity factor) for the entries that follow.
Answers are plain numbers.

CC(C)(C)NCC(O)COc1cccc2c1CC(O)C(O)C2 (stereo not drawn) :: 1.717
Clc1cccc(Cl)c1N=C1NCCN1 :: 3.841
COc1ccc([C@@H]2Sc3ccccc3N(CCN(C)C)C(=O)[C@@H]2OC(C)=O)cc1 :: 24.145
COCCc1ccc(OCC(O)CNC(C)C)cc1 (stereo not drawn) :: 3.600
CN/C(=C\[N+](=O)[O-])NCCSCc1ccc(CN(C)C)o1 :: 1.232
C=CCc1ccccc1OCC(O)CNC(C)C (stereo not drawn) :: 19.190
CC(C)NCC(O)COc1cccc2ccccc12 (stereo not drawn) :: 31.148
CCN1CCCC1CNC(=O)c1cc(S(N)(=O)=O)ccc1OC (stereo not drawn) [Sulpiride] :: 1.804
CN(C)CCCN1c2ccccc2CCc2ccccc21 :: 91.053
CC(CCc1ccccc1)NCC(O)c1ccc(O)c(C(N)=O)c1 (stereo not drawn) :: 12.940

Each molecule below has a reported value. Please supply its k′IAM (capacity factor).
1. CC(C)(C)NCC(O)c1cc(O)cc(O)c1 (stereo not drawn)
2. CC(C)NCC(O)COc1cccc2[nH]ccc12 (stereo not drawn)

[1.276, 4.712]

Each recorded value in this set is attributed to patent US20050014280A1.
